# Tested on: SK-MEL-2 melanoma
# protocolNotes: NCI-60 one-dose screen, 48 h
# conditionSummary: 10 µM unless noted
Compounds without any hit were thinned out: in the full panel of roughly 83,000, 20% have a hit. Active and inactive are the calls of the source. Rule for the calls: active = growth percent below 10; inactive = the rest.
Labels: active, inactive

compound=CCN(CC)CCCCNc1c2ccccc2[n+](C)c2c1[nH]c1ccccc12 cat=active
compound=CCOC(=O)c1c2c(c(C)n1Cc1ccccc1)-c1nc(N)ncc1CC2 cat=inactive
compound=O=C(Nc1ccc(Oc2ccc(NC(=O)Nc3ccc([N+](=O)[O-])cc3)cc2)cc1)Nc1ccc([N+](=O)[O-])cc1 cat=active
compound=CC1=NN(c2ccccc2Cl)C(=O)/C1=C\c1cn(S(=O)(=O)c2ccc(C)cc2)c2ccccc12 cat=inactive
compound=CN(C)c1ccc2c(c1)/C(=N/O)c1ccccc1-2 cat=inactive
compound=CCCCCCCC/C=C\CCCCCCCCOc1ccccc1CC(=O)NCC[N+]1(C)CCCC1 cat=inactive
compound=CN1COc2ccc3ccccc3c2C1 cat=inactive
compound=Nc1nc(SCc2ccccc2Cl)c(-c2ccccc2)c(SCc2ccccc2Cl)n1 cat=inactive
compound=O=C(c1ccccc1)c1ccccc1Cl cat=inactive
compound=O=C(Nc1ccc(OCc2nnc(-c3ccccc3)o2)c(F)c1)Nc1ccc(Cl)c(C(F)(F)F)c1 cat=inactive
compound=CCCCCCCCSc1ncnc2c1ncn2CO cat=inactive
compound=N#CCCN(CCO)c1ccccc1 cat=inactive
compound=O=[N+]([O-])c1ccc(Oc2cccc(C(F)(F)F)c2)c([N+](=O)[O-])c1 cat=inactive
compound="CSc1nc2c(c(=O)[nH]1)C(c1ccc(Cl)cc1)C1=C(N2)/C(=C/c2ccc(Cl)cc2)CNC1 (configuration not stated)" cat=inactive
compound=CCSc1nnc2n(Cc3ccccc3)c(=O)c3c(C)c(C(N)=O)sc3n12 cat=inactive
compound="O=C(C(=O)N1CCCCC1)c1ccc(OC2OC(CO)C(O)C(O)C2O)cc1 (configuration not stated)" cat=inactive
compound="CCC(O)C(C)(C)C (configuration not stated)" cat=inactive
compound=Cc1nn(-c2ccc(Cl)cc2)c2nc3c(nc12)C(=O)C(=O)c1ccccc1-3 cat=inactive
compound=CCCCCCCCCCC[C@@H](C[C@H]1OC(=O)[C@H]1CCCCCC)OC(=O)[C@@H](CC(C)C)NC=O cat=inactive
compound=CCCc1cc(=O)n2c(C(=O)Nc3ccccc3OC)c(C(=O)Nc3ccc(F)cc3)sc2n1 cat=inactive
compound="C[C@@H]1CC[C@H]2[C@@H](C)C(O)O[C@@H]3O[C@]4(C)CC[C@@H]1[C@]32OO4 (some centres not stated)" cat=inactive
compound=O=C(/C(=C/c1cccc([N+](=O)[O-])c1)c1ccccc1)c1ccccc1 cat=inactive
compound=C=C(C[C@@](O)(C(=O)Oc1ccccc1)C(=O)C1CCCCC1)c1ccccc1 cat=inactive
compound=COc1ccc2c(c1)nc(N)c1c3cc(C)c(C)cc3cn21 cat=inactive
compound=Cc1ccc(NC(=O)COC(=O)c2ccc(S(=O)(=O)N3CCCCCC3)cc2)cc1 cat=inactive
compound="CN1CCCC1c1cccnc1 (configuration not stated)" cat=active
compound=O=C(NCCCO)c1cc(Cl)ccc1O cat=active
